Observed MIC, system Candida albicans.

# example entries with known answers
compound=NCCCC[C@H](NC(=O)[C@H](Cc1c[nH]c2ccccc12)NC(=O)[C@H](Cc1c[nH]c2ccccc12)NC(=O)[C@H](CCCN=C(N)N)NC(=O)[C@@H](N)CCCN=C(N)N)C(=O)N[C@@H](Cc1c[nH]c2ccccc12)C(=O)N[C@@H](Cc1c[nH]c2ccccc12)C(=O)N[C@@H](Cc1c[nH]c2ccccc12)C(=O)N[C@@H](CCCN=C(N)N)C(=O)O target_under_test="Candida albicans" experimental_readout=MIC reported_result="5.4 µM"
compound=CC[C@H](C)[C@H](NC(=O)[C@H](CCCCN)NC(=O)[C@@H](N)CS)C(=O)N[C@@H](CC(N)=O)C(=O)N[C@@H](CCCCN)C(=O)N[C@@H](CCC(N)=O)C(=O)N[C@@H](CS)C(=O)O target_under_test="Candida albicans" experimental_readout=MIC reported_result="> 200 µM"

Next:
Lookup: # return recorded MIC for entry CC[C@H](C)[C@H](NC(=O)[C@@H](NC(=O)[C@H](CCCN=C(N)N)NC(=O)[C@H](C)NC(=O)[C@H](CC(C)C)NC(=O)[C@H](CCCCN)NC(=O)[C@H](CCCN=C(N)N)NC(=O)[C@H](C)NC(=O)[C@H](CC(C)C)NC(=O)[C@H](CCCN=C(N)N)NC(=O)CNC(=O)[C@H](Cc1ccccc1)NC(=O)[C@H](CCCCN)NC(=O)[C@H](CO)NC(=O)[C@H](CC(C)C)NC(=O)[C@H](CC(C)C)NC(=O)CN)C(C)C)C(=O)N1CCC[C@H]1C(=O)N[C@@H](CCCCN)C(=O)N[C@H](C(N)=O)C(C)C
Found: > 4 µM

----------
Observed MIC, system Escherichia coli KCTC 1682.
The response must be a number in µM with no trailing unit.

compound=CC[C@H](C)[C@H](NC(=O)[C@H](CCCCN)NC(=O)[C@H](CCCCN)NC(=O)[C@@H](N)Cc1c[nH]c2ccccc12)C(=O)N1CCC[C@H]1C(=O)N[C@@H](CCCCN)C(=O)N[C@@H](Cc1ccccc1)C(=O)N[C@@H](CC(C)C)C(=O)N[C@@H](Cc1cnc[nH]1)C(=O)N[C@@H](CC(C)C)C(=O)N[C@@H](C)C(=O)N[C@@H](CCCCN)C(=O)N[C@@H](CCCCN)C(=O)N[C@@H](Cc1ccccc1)C(N)=O experimental_readout=MIC reported_result=12.5

Lookup: Fill in: MIC on Escherichia coli KCTC 1682, entry CC[C@H](C)[C@H](NC(=O)[C@H](CCCCN)NC(=O)[C@H](CCCCN)NC(=O)[C@H](CC(C)C)NC(=O)[C@H](CCCCN)NC(=O)[C@H](CCC(=O)O)NC(=O)CN)C(=O)NCC(=O)N[C@@H](CCC(N)=O)C(=O)N[C@@H](CCCCN)C(=O)N[C@H](C(=O)N[C@@H](CCCCN)C(=O)N[C@@H](CCCCN)C(=O)N[C@@H](Cc1ccccc1)C(=O)N[C@@H](Cc1ccccc1)C(=O)N[C@@H](CCC(N)=O)C(=O)N[C@@H](CCCCN)C(=O)N[C@@H](CC(C)C)C(=O)O)[C@@H](C)CC
Found: 25

----------
Observed MIC, system Salmonella enterica subsp. enterica serovar Pullorum C79-13.
The response must be a number in µM with no trailing unit.

Lookup: Fill in: MIC on Salmonella enterica subsp. enterica serovar Pullorum C79-13, entry NC(=O)[C@H](Cc1c[nH]c2ccccc12)NC(=O)[C@H](CCCN=C(N)N)NC(=O)[C@H](CS)NC(=O)[C@H](Cc1ccccc1)NC(=O)[C@H](CCCN=C(N)N)NC(=O)[C@H](CCCN=C(N)N)NC(=O)[C@H](CCCN=C(N)N)NC(=O)[C@H](CS)NC(=O)[C@H](CCCN=C(N)N)NC(=O)[C@@H](N)Cc1c[nH]c2ccccc12
Found: 4

Lookup: Fill in: MIC on Salmonella enterica subsp. enterica serovar Pullorum C79-13, entry CC[C@H](C)[C@H](NC(=O)[C@H](Cc1c[nH]c2ccccc12)NC(=O)[C@H](CCCCN)NC(=O)[C@H](CC(C)C)NC(=O)[C@@H](NC(=O)[C@H](CCCCN)NC(=O)CNC(=O)[C@@H](NC(=O)[C@H](CCCCN)NC(=O)[C@H](CCCCN)NC(=O)[C@H](CC(C)C)NC(=O)[C@@H](N)CCCN=C(N)N)[C@@H](C)CC)C(C)C)C(N)=O
Found: 4

----------
Observed MIC, system Staphylococcus aureus ATCC 25923.
The response must be a number in µM with no trailing unit.

molecule="CC[C@H](C)[C@H](NC(=O)[C@H](Cc1c[nH]c2ccccc12)NC(=O)[C@H](CCCCN)NC(=O)[C@H](Cc1c[nH]c2ccccc12)NC(=O)[C@@H](NC(=O)[C@H](Cc1c[nH]c2ccccc12)NC(=O)CNC(=O)[C@@H](NC(=O)[C@H](CCCCN)NC(=O)[C@H](CCCCN)NC(=O)[C@H](Cc1c[nH]c2ccccc12)NC(=O)[C@@H](N)CCCN=C(N)N)[C@@H](C)CC)C(C)C)C(N)=O [RWKKIGWVWKWI]" experimental_readout=MIC reported_result=2

Next:
Lookup: Fill in: MIC on Staphylococcus aureus ATCC 25923, entry NC(=O)[C@H](CCCN=C(N)N)NC(=O)[C@H](Cc1c[nH]c2ccccc12)NC(=O)[C@H](Cc1c[nH]c2ccccc12)NC(=O)[C@@H](N)CCCN=C(N)N [RWWR]
Found: 142

----------
Tested on: Escherichia coli K88
experimental_readout: MIC (µM)
The response must be a number in µM with no trailing unit.

molecule="CC(C)C[C@H](NC(=O)CNC(=O)[C@H](CC(C)C)NC(=O)[C@H](Cc1c[nH]c2ccccc12)NC(=O)[C@H](CC(C)C)NC(=O)CNC(=O)[C@H](CC(C)C)NC(=O)[C@H](CCCCN)NC(=O)[C@H](CCCCN)NC(=O)CN)C(=O)N[C@@H](CCCCN)C(=O)N[C@@H](CCCCN)C(=O)NCC(N)=O [GKKLGLWLGLKKG]" target_under_test="Escherichia coli K88" experimental_readout=MIC reported_result=4

Lookup: Fill in: MIC on Escherichia coli K88, entry CC(C)C[C@H](NC(=O)CNC(=O)[C@H](CCCCN)NC(=O)[C@H](CC(C)C)NC(=O)[C@H](CC(C)C)NC(=O)[C@H](CCCCN)NC(=O)[C@@H](N)CCCCN)C(=O)N[C@@H](CC(C)C)C(=O)N[C@@H](CCCCN)C(=O)NCC(=O)N[C@@H](Cc1c[nH]c2ccccc12)C(N)=O [KKLLKGLLKGW]
Found: 16

----------
Observed MIC, system Staphylococcus aureus ATCC 25923.
The response must be a number in µM with no trailing unit.

compound=CC[C@H](C)[C@H](NC(=O)[C@H](CCCCN)NC(=O)[C@H](CCCN=C(N)N)NC(=O)[C@H](CC(C)C)NC(=O)[C@H](Cc1ccccc1)NC(=O)[C@H](CCCN=C(N)N)NC(=O)CNC(=O)[C@H](Cc1ccccc1)NC(=O)[C@H](CCCN=C(N)N)NC(=O)CNC(=O)[C@H](CCCN=C(N)N)NC(=O)[C@H](CCC(N)=O)NC(=O)[C@@H](NC(=O)[C@@H](N)CC(C)C)C(C)C)C(=O)N[C@@H](CCCN=C(N)N)C(=O)N[C@@H](CCCN=C(N)N)C(=O)N[C@@H](Cc1ccccc1)C(=O)N[C@@H](CCCN=C(N)N)C(=O)O scale_unit=µM reported_result=2

Next:
Lookup: Fill in: MIC on Staphylococcus aureus ATCC 25923, entry CC(C)C[C@H](NC(=O)[C@H](CC(C)C)NC(=O)[C@H](CCCCN)NC(=O)[C@H](CCCCN)NC(=O)[C@H](CC(C)C)NC(=O)[C@@H](NC(=O)[C@H](CCCCN)NC(=O)[C@H](CC(C)C)NC(=O)[C@@H](N)Cc1ccccc1)C(C)C)C(N)=O
Found: 29.1

----------
Listed below: MIC values for each entry.
Test system: Pseudomonas aeruginosa ATCC 27853
measurement_protocol: ≥ marks a high value that may be exact or a test limit, other limits are often not marked, values filed in µg/mL are converted to µM

compound="CC[C@H](C)[C@H](NC(=O)[C@H](C)NC(=O)CNC(=O)[C@H](Cc1ccccc1)NC(=O)[C@@H](NC(=O)[C@@H](N)CC(=O)O)[C@@H](C)CC)C(=O)N[C@@H](Cc1c[nH]c2ccccc12)C(=O)N1CCC[C@H]1C(=O)N[C@@H](CC(C)C)C(=O)N[C@@H](C)C(=O)N[C@@H](CC(C)C)C(=O)NCC(=O)N[C@@H](C)C(=O)N[C@@H](CC(C)C)C(=O)N[C@@H](CCCCN)C(=O)N[C@@H](CC(N)=O)C(=O)N[C@@H](CC(C)C)C(=O)N[C@H](C(=O)N[C@@H](CCCCN)C(N)=O)[C@@H](C)CC [DIFGAIWPLALGALKNLIK]" target_under_test="Pseudomonas aeruginosa ATCC 27853" reported_result="> 128 µM"

Next:
Lookup: # return recorded MIC for entry CC[C@H](C)[C@H](NC(C)=O)C(=O)N[C@@H](Cc1ccccc1)C(=O)NCC(=O)N[C@@H](C)C(=O)N[C@H](C(=O)N[C@@H](Cc1c[nH]c2ccccc12)C(=O)N1CCC[C@H]1C(=O)N[C@@H](CC(C)C)C(=O)N[C@@H](C)C(=O)N[C@@H](CC(C)C)C(=O)NCC(=O)N[C@@H](C)C(=O)N[C@@H](CC(C)C)C(=O)N[C@@H](CCCCN)C(=O)N[C@@H](CC(N)=O)C(=O)N[C@@H](CC(C)C)C(=O)N[C@H](C(=O)N[C@@H](CCCCN)C(N)=O)[C@@H](C)CC)[C@@H](C)CC [IFGAIWPLALGALKNLIK]
Found: > 128 µM

All figures here come from DBAASP.
